studySystem: KRAS G12C/SOS1 (Homo sapiens, UniProt Q07889)
Construct: purchased Cytoskeleton (SOS1); AntibodySystem (KRAS G12C)
Sequence (Q07889 564-1049 limits assumed, stated change not applied): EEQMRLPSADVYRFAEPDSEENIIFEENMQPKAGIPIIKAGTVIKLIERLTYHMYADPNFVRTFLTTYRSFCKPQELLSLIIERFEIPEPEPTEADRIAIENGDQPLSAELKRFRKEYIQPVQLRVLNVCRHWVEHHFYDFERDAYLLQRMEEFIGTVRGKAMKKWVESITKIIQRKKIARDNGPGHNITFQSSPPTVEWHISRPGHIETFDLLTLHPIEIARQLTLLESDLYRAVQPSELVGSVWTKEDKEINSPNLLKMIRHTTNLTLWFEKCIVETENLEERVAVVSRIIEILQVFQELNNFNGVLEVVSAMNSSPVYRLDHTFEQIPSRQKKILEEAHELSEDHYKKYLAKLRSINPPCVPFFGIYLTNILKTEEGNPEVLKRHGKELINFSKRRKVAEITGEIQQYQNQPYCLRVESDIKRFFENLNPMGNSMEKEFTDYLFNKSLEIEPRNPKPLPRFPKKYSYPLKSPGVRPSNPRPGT
assayRemarks: KRAS G12C/SOS1 PPI homogeneous time-resolved fluorescence (HTRF) assay
Type: binding
condition: read-out: Inhibition rate (%)
attributeMeasured: inhibition at 40 µg/mL (%)
One number for each entry, in %.

Sample answers from the record:
Cc1ccccc1C1=CCN(c2ncc(NS(=O)(=O)c3ccc(C(C)C)cc3)cc2C(=O)O)CC1 [CL01545464]: 55.3
Cc1ccc(S(=O)(=O)Nc2cnc(N3CCCC3)c(C(=O)O)c2)c(C)c1 [CL01545355]: 53.3
CC(C)c1ccc(S(=O)(=O)Nc2cnc(N3CCCC3)c(C(=O)O)c2)cc1 [CL01545365]: 66.6

Task: Record lookup: for KRAS G12C/SOS1 (Homo sapiens, UniProt Q07889), what inhibition at 40 µg/mL belongs to Cc1ccc(S(=O)(=O)Nc2cnc(N3CC=C(c4ccccc4C)CC3)c(C(=O)O)c2)c(C)c1 [CL01545444] ?
Output: 45.5

---

I'd appreciate it if you could supply inhibition at 25 µg/mL values for the items below.
studySystem: KRAS G12C/SOS1 (Homo sapiens, UniProt Q07889)
Construct: purchased Cytoskeleton (SOS1); AntibodySystem (KRAS G12C)
assayRemarks: KRAS G12C/SOS1 PPI homogeneous time-resolved fluorescence (HTRF) assay
Type: binding
condition: read-out: Inhibition rate at 25 μg mL^−1 (%)
Numbers only, in %.

CCOCCCN(C)C1CCN(c2ncc(NC(=O)c3ccc(C)cc3)cc2C(=O)O)CC1: 25.3
Cc1ccc(S(=O)(=O)Nc2cnc(N3CC=C(c4ccccc4C)CC3)c(C(=O)O)c2)c(C)c1: 31.1
CC(C)c1cccc2cc3c(nc12)OCCN(CCc1ccc2c(c1)OCO2)C3: -6.5
CCC(C)NC(=O)c1ccc(Cn2c(=O)c3cc(OC)c(OC)cc3n(Cc3ccccc3F)c2=O)cc1 (stereo not shown): 2
Cc1ccc(S(=O)(=O)Nc2cnc(N3CCCC3)c(C(=O)O)c2)c(C)c1: 38

Batch lookup, inhibition at 25 µg/mL per entry.
1. CC(C)c1ccc(S(=O)(=O)Nc2cnc(N3CCCC3)c(C(=O)O)c2)cc1
2. Cc1ccccc1C1=CCN(c2ncc(NS(=O)(=O)c3ccc(C(C)C)cc3)cc2C(=O)O)CC1

Output:
1. 53.8
2. 42.9

---

studySystem: KRAS G12C/SOS1 (Homo sapiens)
Construct: purchased Cytoskeleton (SOS1); AntibodySystem (KRAS G12C)
assayRemarks: KRAS G12C/SOS1 PPI homogeneous time-resolved fluorescence (HTRF) assay
Type: binding
condition: converted from μg mL^−1; read-out: IC50 calculated using the molecular weight of each compound
attributeMeasured: pIC50
Answers are plain numbers, as −log10 of the molar value.

Sample answers from the record:
CC(C)c1ccc(S(=O)(=O)Nc2cnc(N3CCCC3)c(C(=O)O)c2)cc1: 4.27
Cc1ccccc1C1=CCN(c2ncc(NS(=O)(=O)c3ccc(C(C)C)cc3)cc2C(=O)O)CC1: 4.18
Cc1ccc(S(=O)(=O)Nc2cnc(N3CCCC3)c(C(=O)O)c2)c(C)c1: 4.02

Now consider the entry below.
Task: I have this compound here, `Cc1ccc(S(=O)(=O)Nc2cnc(N3CC=C(c4ccccc4C)CC3)c(C(=O)O)c2)c(C)c1` , and I need its recorded pIC50.
Output: 3.99

Attribution: paper PMC11042245
